Study system: Transcription factor AP1 (Homo sapiens, UniProt P05412+P01100)
Test name: Inhibitory activity on AP1 DNA-binding at 1 mM
Type: protein-complex assay
Readout label: inhibition (%)

(1) CC(C)COc1ccc(C(=O)c2ccc(OCc3ccccc3)c(CCC(=O)O)c2)cc1
(2) CC(C)COc1ccc(C(=O)c2cccc(CCC(=O)O)c2)cc1
(3) CC(C)COc1ccc(C(=O)c2ccccc2)cc1CCC(=O)O
(4) CCCOc1ccc(C(=O)c2ccc(OCC(C)C)cc2)cc1CCC(=O)O
// ascending sort on recorded inhibition Please list each label once, in the requested order. 3, 2, 4, 1

(A) CCCOc1ccc(C(=O)c2ccc(OCC(C)C)c(CCC(=O)O)c2)cc1
(B) CC(C)COc1ccc(C(=O)c2ccc(OCC(C)C)c(CCC(=O)O)c2)cc1
Just tell me: smaller inhibition value, A or B ? Label of pick, please. A

Origin of values: ChEMBL document CHEMBL1148596
